Below, each entry is listed with its recorded IC50 at 72 h.
Test: Cytotoxicity against human MRC5 cells assessed as inhibition of cell proliferation incubated for 72 hrs by MTT assay
Assay type: toxicity, cell-based

Below are worked cases with known answers.
Q: In one line, give reported IC50 at 72 h of the entry CC(=O)Nc1ccc2[nH]c3c(c2c1)CC(NC(=O)c1ccccc1)CC3 (stereo not given) .
Ans: > 50 µM

Q: In one line, give reported IC50 at 72 h of the entry `O=C1c2c(O)ccc(O)c2C(=O)c2c(NCCNCCO)ccc(NCCNCCO)c21` .
Ans: 0.517 µM

Q: In one line, give reported IC50 at 72 h of the entry CC(=O)Nc1ccc2[nH]c3c(c2c1)CC(NC(C)=O)CC3 (stereo not given) .
Ans: > 50 µM

Q: In one line, give reported IC50 at 72 h of the entry CCc1ccc(C(=O)NC2CCc3[nH]c4ccc(NC(C)=O)cc4c3C2)o1 (stereo not given) .
Ans: > 50 µM

We now examine a further compound.
Q: In one line, give reported IC50 at 72 h of the entry CC(=S)NC1CCc2[nH]c3ccc(Br)cc3c2C1 (stereo not given) .
Ans: > 50 µM

* * *

Test system: A549
Assay: Cytotoxicity against human A549 cells assessed as inhibition of cell proliferation incubated for 72 hrs by MTT assay
Format: functional, cell-based
Conditions: A549, 72 h
pIC50: −log10 of the molar value.
MEASURED_PROPERTY: pIC50

Below are worked cases with known answers.
Q: Under A549: report pIC50 of CCc1ccc(C(=O)NC2CCc3[nH]c4ccc(NC(C)=O)cc4c3C2)o1 (stereo not given) .
Ans: < 4.30

Q: Under A549: report pIC50 of CC(=O)Nc1ccc2[nH]c3c(c2c1)CC(NC(=O)OC(C)(C)C)CC3 (stereo not given) .
Ans: < 4.30

Q: Under A549: report pIC50 of CC(=S)NC1CCc2[nH]c3ccc(OC(F)(F)F)cc3c2C1 (stereo not given) .
Ans: 4.59

Q: Under A549: report pIC50 of CC(=O)Nc1ccc2[nH]c3c(c2c1)CC(NC(=O)c1cc2ccccc2[nH]1)CC3 (stereo not given) .
Ans: < 4.30

We now examine a further compound.
Q: Under A549: report pIC50 of CC(=O)Nc1ccc2[nH]c3c(c2c1)CC(NC(=O)c1ccc(Br)o1)CC3 (stereo not given) .
Ans: < 4.30

* * *

System: A549
Assay: Cytotoxicity against human A549 cells assessed as reduction in cell viability incubated for 48 hrs by MTT assay
Format: functional, cell-based
Conditions: A549, 48 h
MEASURED_PROPERTY: pIC50
pIC50 is a log-scale quantity: -log10 of the concentration expressed in molar.

Q: Under A549: report pIC50 of CCN(CC)C1CCc2c(n(C)c3ccccc23)C1=O (stereo unspecified) .
Ans: 3.96

* * *

System: A549
Experiment: Cytotoxicity against human A549 cells assessed as inhibition of cell proliferation incubated for 72 hrs by MTT assay
Type: functional, cell-based
Conditions: A549, 72 h
MEASURED_PROPERTY: IC50

Q: In one line, give reported IC50 of the entry CC(=O)NC1CCc2[nH]c3ccc(S(N)(=O)=O)cc3c2C1 (configuration not stated) .
Ans: > 50 µM

Q: In one line, give reported IC50 of the entry CC(=S)NC1CCc2[nH]c3ccc(Br)cc3c2C1 (configuration not stated) .
Ans: 4.54 µM

Q: In one line, give reported IC50 of the entry `O=C1c2c(O)ccc(O)c2C(=O)c2c(NCCNCCO)ccc(NCCNCCO)c21` .
Ans: 0.164 µM

Q: In one line, give reported IC50 of the entry CC(=O)Nc1ccc2[nH]c3c(c2c1)CC(NC(C)=O)CC3 (configuration not stated) .
Ans: > 50 µM

Q: In one line, give reported IC50 of the entry CC(=O)Nc1ccc2[nH]c3c(c2c1)CC(NC(=O)c1ccccc1)CC3 (configuration not stated) .
Ans: > 50 µM

Q: In one line, give reported IC50 of the entry CC(=O)Nc1ccc2[nH]c3c(c2c1)CC(NC(=O)c1ccc(C)o1)CC3 (configuration not stated) .
Ans: > 50 µM

We now examine a further compound.
Q: In one line, give reported IC50 of the entry CC(=O)Nc1ccc2[nH]c3c(c2c1)CC(NC(=O)c1ccc(C)s1)CC3 (configuration not stated) .
Ans: > 50 µM

* * *

Tested on: MCF7
Assay: Cytotoxicity against human MCF7 cells assessed as inhibition of cell proliferation incubated for 72 hrs by MTT assay
Type: functional, cell-based
Settings: MCF7, 72 h
MEASURED_PROPERTY: IC50

Q: In one line, give reported IC50 of the entry CC(=O)Nc1ccc2[nH]c3c(c2c1)CC(NC(=O)c1ccc(C)o1)CC3 (configuration not stated) .
Ans: > 50 µM

Q: In one line, give reported IC50 of the entry CC(=O)Nc1ccc2[nH]c3c(c2c1)CC(NC(=O)OC(C)(C)C)CC3 (configuration not stated) .
Ans: > 50 µM

Q: In one line, give reported IC50 of the entry CC(=O)Nc1ccc2[nH]c3c(c2c1)CC(NC(=O)c1ccc(C)s1)CC3 (configuration not stated) .
Ans: > 50 µM

Q: In one line, give reported IC50 of the entry CC(=O)NC1CCc2[nH]c3ccc(S(N)(=O)=O)cc3c2C1 (configuration not stated) .
Ans: > 50 µM

Q: In one line, give reported IC50 of the entry `O=C1c2c(O)ccc(O)c2C(=O)c2c(NCCNCCO)ccc(NCCNCCO)c21` .
Ans: 0.018 µM

Further cases:
Q: In one line, give reported IC50 of the entry CC(=O)Nc1ccc2[nH]c3c(c2c1)CC(NC(C)=O)CC3 (configuration not stated) .
Ans: > 50 µM

Q: In one line, give reported IC50 of the entry CC(=S)NC1CCc2[nH]c3ccc(Br)cc3c2C1 (configuration not stated) .
Ans: 3.81 µM

Q: In one line, give reported IC50 of the entry CC(=O)Nc1ccc2[nH]c3c(c2c1)CC(NC(=O)c1ccc(Br)o1)CC3 (configuration not stated) .
Ans: > 50 µM

Q: In one line, give reported IC50 of the entry CC(=O)Nc1ccc2[nH]c3c(c2c1)CC(NC(=O)c1ccccc1)CC3 (configuration not stated) .
Ans: > 50 µM

Q: In one line, give reported IC50 of the entry CCc1ccc(C(=O)NC2CCc3[nH]c4ccc(NC(C)=O)cc4c3C2)o1 (configuration not stated) .
Ans: > 50 µM

Q: In one line, give reported IC50 of the entry CC(=S)NC1CCc2[nH]c3ccc(OC(F)(F)F)cc3c2C1 (configuration not stated) .
Ans: 31 µM

Q: In one line, give reported IC50 of the entry CC(=O)Nc1ccc2[nH]c3c(c2c1)CC(NC(=O)c1cc2ccccc2[nH]1)CC3 (configuration not stated) .
Ans: > 50 µM

* * *

Test system: HCT-116
Test: Cytotoxicity against human HCT-116 cells assessed as reduction in cell viability incubated for 48 hrs by MTT assay
Assay type: functional, cell-based
Details: HCT-116, 48 h
MEASURED_PROPERTY: IC50 (µM)
Hi! Could you send only the number? It should be in µM, unit omitted.

Q: In one line, give reported IC50 of the entry CCN(CC)C1CCc2c(n(C)c3ccccc23)C1=O (stereo unspecified) .
Ans: 2.96

* * *

Target: Acetylcholinesterase (Homo sapiens, UniProt P22303)
Sequence (P22303 whole entry): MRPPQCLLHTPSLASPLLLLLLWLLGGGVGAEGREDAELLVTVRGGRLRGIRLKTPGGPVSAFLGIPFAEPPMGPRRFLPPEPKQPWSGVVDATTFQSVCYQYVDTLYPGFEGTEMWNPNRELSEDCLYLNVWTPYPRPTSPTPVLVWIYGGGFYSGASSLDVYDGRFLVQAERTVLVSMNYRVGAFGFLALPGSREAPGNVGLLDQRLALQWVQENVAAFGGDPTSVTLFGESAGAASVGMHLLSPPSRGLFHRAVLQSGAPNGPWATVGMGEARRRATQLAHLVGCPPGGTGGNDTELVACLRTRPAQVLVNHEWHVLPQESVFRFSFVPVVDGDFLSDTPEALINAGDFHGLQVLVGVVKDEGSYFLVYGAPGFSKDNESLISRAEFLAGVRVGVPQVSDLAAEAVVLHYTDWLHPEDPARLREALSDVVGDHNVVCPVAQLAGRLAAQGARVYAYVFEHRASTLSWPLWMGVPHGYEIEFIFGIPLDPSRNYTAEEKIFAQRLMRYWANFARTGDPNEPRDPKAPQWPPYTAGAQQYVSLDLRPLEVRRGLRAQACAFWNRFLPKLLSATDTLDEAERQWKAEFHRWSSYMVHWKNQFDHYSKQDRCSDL
MEASURED_PROPERTY: pIC50
pIC50 is a log-scale quantity: -log10 of the concentration expressed in molar.

Q: Under Acetylcholinesterase (Homo sapiens, UniProt P22303): report pIC50 of `O=C1[C@H](O)C[C@]23CCCN1[C@@H]2c1c([nH]c2ccccc12)CC3` .
Ans: 4.41

* * *

Experiment: Toxicity in chicken embryo chorioallantoic membrane assessed as survival rate at 4.5 uM measured at day 6 by Kaplan Mayer survival analysis relative to control
Assay type: tissue-based, Gallus gallus
MEASURED_PROPERTY: survival at 4.5 µM (%)
Hi! Could you send only the number? It should be in %, unit omitted.

Q: In one line, give reported survival at 4.5 µM of the entry CC(=S)NC1CCc2[nH]c3ccc(OC(F)(F)F)cc3c2C1 (stereo unspecified) .
Ans: 70

Values were extracted from ChEMBL document CHEMBL6071148.
